Tested on: Chordin-like protein 2 (CHRDL2)
measurement notes: CHRDL2 small-molecule binders, primary screen, biochemical, small-molecule microarray, 635 nm fluorescence (AID 1126);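 also: printed compound slides probed with Chrdl2 protein at 4 µg/mL for 1 h at 4 C; score merges 667 nm emission intensity with signal to noise over three replicate slides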
experimental parameters: small-molecule microarray binding, fluorescence 635 nm; higher = more signal
Answer n if composite z-score is under -0.001, and y if it is -0.001 or more.

compound: C=CCNC(=O)[C@@H]1[C@H]2C(=O)O[C@H](c3ccccc3)[C@H](c3ccccc3)N2[C@H](c2ccccc2OCCO)[C@@]12C(=O)N(C(=O)OCCOC)c1ccc(C#CCNC(N)=O)cc12
label: n
//
compound: COC(=O)[C@@]1(Cc2ccccc2)[C@H]2c3cc(C(=O)N4CCCC4)n(CC4CC4)c3C[C@H]2CN1C(=O)c1ccccc1
label: n
//
compound: CC1CC/C=C\[C@H]2OC34C=CCN(C(C)(C)C)C(=O)[C@H]3N(CCCCCCO)C(=O)[C@@H]4C2C(=O)O1 (stereo partly specified)
label: n
//
compound: C=CCOC(=O)[C@H]1[C@@H]2C(=O)O[C@@H](c3ccccc3)[C@@H](c3ccccc3)N2[C@@H](c2ccc(OCCOC(=O)[C@@H]3C[C@@H]4C(=O)N[C@@H](CCCCN(C)C)C(=O)N4[C@@H]3c3ccc(O)cc3)cc2)[C@]12C(=O)Nc1ccc(I)cc12
label: y
//
compound: COc1ccc(C#Cc2ccc3c(c2)[C@]2(C(=O)N3)[C@H](c3ccccc3OCCO)N3[C@H](c4ccccc4)[C@H](c4ccccc4)OC(=O)[C@H]3[C@@H]2C(=O)O)cc1
label: n
//
compound: CN1C(=O)C2C=CC(C(O)C3=C[C@H]4C[C@@H](C3)C4(C)C)N(Nc3ccccc3)C2C1=O (stereo partly specified)
label: y
